pIC50: −log10 of the molar value.
Below are pIC50 measurements against UniProt P23458 drawn from the literature.

Record excerpt, results attached:
CC(C)CNc1nc(Nc2ccc3c(c2)NC[C@H](O)CO3)ncc1C(N)=O : > 8.00
N#CCC(C1CC1)n1cc(-c2nc(C(=O)Nc3ccccn3)cc3nccn23)cn1 (centres unmarked) : 6.00 to 7.00
CNc1nc(Nc2ccc3c(c2)NC[C@H](O)CO3)ncc1C(N)=O : 7.00 to 8.00
N#CCC1(n2cc(-c3ncnc4[nH]ccc34)cn2)CN(C2CCN(C(=O)c3ncco3)CC2)C1 : 7.70 to 8.30
Cc1cc(Nc2ncc(Cl)c(N(C)C3CCN(c4ccc(C#N)cn4)CC3)n2)nn1C : 8.40

Any idea what its pIC50 is? The molecule is CN(c1ncnc2[nH]ccc12)N1CCC(C(=O)NCC#N)C1 (centres unmarked)
> 8.00

# lookup: pIC50 of CCOC(=O)c1cnc2[nH]ccc2c1N[C@H]1CN(C(=O)CC#N)CC[C@H]1C
≥ 8.00

GET /values?readout=pIC50&item= COC(=O)c1ccc(NC(=O)N2CCC(N3CC(CC#N)(n4cc(-c5ncnc6[nH]ccc56)cn4)C3)CC2)c(F)c1
≥ 8.30

* * *

pIC50: −log10 of the molar value.
Listed below are compounds with pIC50 for Tyrosine-protein kinase JAK1 (Homo sapiens, UniProt P23458), each taken from published literature.

Previously resolved entries follow.
Cc1cc(Nc2nc(N[C@@H]3C[C@H]4CC[C@@H](C3)N4CCC#N)nc3cccc(Cl)c23)n[nH]1 : < 7.00
CC(C)OC(=O)NC[C@H]1CC[C@H](n2c(CC#N)nc3cnc4ccsc4c32)CC1 : ≥ 7.00
COCCC1(n2cc(-c3nc(-c4cnn(C)c4)cc4nccn34)cn2)CCC1 : < 6.00
O=C(CC(F)(F)F)N1CCCN(Nc2ncnc3[nH]ccc23)CC1 : < 6.00
Cc1cc(Nc2ncc(C)c(N3CC(CC#N)(NCC4CCC(F)C4)C3)n2)sn1 (centres unmarked) : > 8.00
CC(C)OC(=O)Cn1cc(Nc2ncc3ccn(CC(C(C)C)C(C)C)c3n2)cn1 : > 7.00

So what's the measured pIC50 for this one? CCOC(=O)CO[C@H]1CNc2cc(Nc3ncc(C(N)=O)c(NC4CC4)n3)ccc2OC1
> 8.00

Consider the compound CN(c1ncnc2[nH]ccc12)C1CC2(C1)CN(C(=O)c1ccc(S(N)(=O)=O)cc1)C2 and give its measured pIC50.
≥ 8.00

* * *

Below are IC50 measurements against Tyrosine-protein kinase JAK1 (Homo sapiens, UniProt P23458) drawn from the literature.
Give just the numeric value; nM need not be written.

CN(c1ncc(F)cc1CNc1nc(-c2cc(F)c(O)cc2CC(F)(F)F)cc2[nH]nc(C(N)=O)c12)S(C)(=O)=O : 5.9

Form entry - test system: Tyrosine-protein kinase JAK1 (Homo sapiens, UniProt P23458); read-out: IC50; molecule: Cn1nccc1-c1cc2c(N[C@@H]3C[C@@H](O)[C@@H](O)C3(C)C)c(C(N)=O)cnn2c1 (racemic)
10.9

# query: IC50 | item O=C(NC12CC(n3cnc4cnc5[nH]ccc5c43)(C1)C2)N1CC(F)(F)C1 | system: Tyrosine-protein kinase JAK1 (Homo sapiens, UniProt P23458)
101

* * *

pIC50 values for Tyrosine-protein kinase JAK1 (Homo sapiens) compiled from several publications are listed below.
pIC50: −log10 of the molar value.

Worked examples, 8 molecules total:
Cc1cnc2nc1Nc1cccc(c1)CCCNC(=O)c1c(F)cc(cc1F)-c1cnc(F)c(c1)N2 : 6.00 to 7.00
O=C1NCCCCOCc2cc(cc(N3CCOCC3)c2)Nc2ncc(Cl)c(n2)-c2ccc1cc2 : 7.00 to 7.96
CN(c1ncnc2[nH]ccc12)C1CCC2(CC1)CCN(C(=O)Cc1ccc(C#N)cc1)CC2 : 7.00 to 8.00
O=C1NCCCCOCc2cc(ccc2OCC2CCC(F)(F)C2)Nc2nccc(n2)-c2ccc1cc2[N+](=O)[O-] (stereo not shown) : 5.00 to 6.00
CC(C)(C)NS(=O)(=O)c1cccc(N2CCc3cnc(Nc4ccc(N5CCNCC5)cc4)nc32)c1 : 6.69
Cc1ccsc1C(=O)N1CCC(N2CC(CC#N)(n3cc(-c4ncnc5[nH]ccc45)cn3)C2)CC1 : ≥ 8.30
N#CCC1(n2ccc(-c3ncnc4[nH]ccc34)c2)CN(C2CCN(C(=O)c3ccc(C#N)cc3F)CC2)C1 : 7.70 to 8.30
Cc1cnc(Nc2cnn(C)c2)nc1N(C)C1CCN(c2ccc(C#N)cn2)CC1 : 8.70

Please state recorded pIC50 (tested on Tyrosine-protein kinase JAK1 (Homo sapiens)) of N#CCC1(n2cc(-c3ncnc4[nH]ccc34)cn2)CN(C2CCN(C(=O)c3cc4cccc(C(F)(F)F)c4s3)CC2)C1
≥ 8.30

Enter reported pIC50 observed with Tyrosine-protein kinase JAK1 (Homo sapiens) for CNc1cc2ccc1-c1ccnc(n1)Nc1ccc(OC(C)C)c(c1)COCCCCNC2=O
5.00 to 6.00

API: value(readout=pIC50, system=Tyrosine-protein kinase JAK1 (Homo sapiens)) for record CC(C)(O)Cn1cnc2cc(Nc3ncc(Cl)c(NC4CCN(c5ccc(C#N)cn5)CC4)n3)ccc21
9.30

Checklist item: pIC50 tested on Tyrosine-protein kinase JAK1 (Homo sapiens), entry CCOC(=O)Cn1cc(Nc2ncc3ccn(CC4CCCC(C)C4)c3n2)cn1 (stereo not shown) , value?
> 7.00

# returns recorded pIC50 (system: Tyrosine-protein kinase JAK1 (Homo sapiens)) for CCC(CCCO)n1cc(-c2nc(-c3cnn(C)c3)cc3nccn23)cn1 (stereo not shown)
6.00 to 7.00

For Tyrosine-protein kinase JAK1 (Homo sapiens), provide pIC50 of N#CCC(C1CC1)n1cc(-c2nc(-c3cnn(C4CCC4)c3)cc3nccn23)cn1 (stereo not shown) please.
7.00 to 8.00

Identify the measured pIC50 of CN(c1ncnc2[nH]ccc12)C1CC2(C1)CN(C(=O)c1ccc(I)cc1)C2 for Tyrosine-protein kinase JAK1 (Homo sapiens).
7.00 to 8.00

What value of pIC50 on Tyrosine-protein kinase JAK1 (Homo sapiens) does N#CCC1(n2cc(-c3ncnc4[nH]ccc34)cn2)CN(C2CCN(C(=O)C3CCc4ccccc4C3)CC2)C1 (stereo not shown) have?
7.70 to 8.30

* * *

Multiple publications report pIC50 for UniProtKB P23458; what follows is a combined list.
pIC50: −log10 of the molar value.

Recorded pIC50, per entry:
C=CC(=O)N(C)c1cc(Nc2ncc(Cl)c(NCCCNC(=O)c3ccc(F)cc3)n2)ccc1F : 6.76
CCOC(=O)c1cnc2[nH]ccc2c1N(C)[C@H]1CC[C@H](OC(=O)CC#N)C1 (single isomer, unassigned) : 7.00 to 8.00
CN1CCC(n2cc(-c3nc(NC4CCN(S(C)(=O)=O)CC4)ncc3C(F)(F)F)cn2)CC1 : ≤ 5.00
C[C@@H](O)c1nc2cnc3ccsc3c2n1[C@H]1CC[C@H](CNC(=O)OC2CCOC2)CC1 (some centres unmarked) : ≥ 7.00

Which value of pIC50 has been reported for O=C1NCCCCOCc2cc(ccc2OCC2COC2)Nc2nccc(n2)-c2ccc1cc2[N+](=O)[O-] in the records?
5.00 to 6.00

Report pIC50 for C[C@@H](O)c1nc2cnc3[nH]ccc3c2n1N1CCC(C)(CC#N)CC1 please.
8.20

Please report the recorded pIC50 for Cn1cc(-c2cc3nccn3c(-c3cnn(C4(CCF)CN(S(=O)(=O)CC(F)(F)F)C4)c3)n2)cn1 .
< 6.00

Can you share its pIC50? I mean this molecule: CC#CCN1CC(CC#N)(n2cc(-c3nc(-c4cnn(C)c4)cc4nccn34)cn2)C1
< 6.00

Dear colleague, I am looking for the recorded pIC50 of the following molecule: CN1CCN(c2ccc(Nc3ncc4ccn(-c5cccc(NS(=O)(=O)C(C)(C)C)c5)c4n3)cc2C#N)CC1
5.96

Quick check: pIC50 of C[C@@H](O)c1nc2cnc3ccsc3c2n1[C@H]1CC[C@H](CF)CC1 ?
≥ 7.00

Look up pIC50: O=C1NCCCCOCc2cc(cc(F)c2F)Nc2nccc(n2)-c2ccc1cc2[N+](=O)[O-]
5.00 to 6.00

Please look up its pIC50: CCCC(=O)N1CCC2(CCC(N(C)c3ncnc4[nH]ccc34)CC2)CC1
6.00 to 7.00

# pIC50 lookup, item C[C@H](CO)n1cc(Nc2nc(-c3cnn(C4(CC#N)CN(S(C)(=O)=O)C4)c3)c3sccc3n2)cn1
> 7.30

What value of measured pIC50 is listed for C[C@]1(O)CC[C@@H](Nc2c(C(N)=O)cnn3cc(-c4ccccc4C(N)=O)cc23)CC1 ?
7.14

So what's the measured pIC50 for this one? O=C(Nc1ccc(Cl)c(-c2ccc3c(c2)[nH]c2ncncc23)c1)c1cccc(C(F)(F)F)c1
≥ 6.30

Fill blank: measured pIC50 of the molecule O=C(Nc1nc2cccc(-c3cccc(CN4CCOCC4)c3)n2n1)C1CC1 is ____.
6.54

Report pIC50 for N#CCc1nc2cnc3ccsc3c2n1[C@H]1CC[C@H](CC#N)CC1 please.
≥ 7.00

Value lookup for pIC50; key = CCS(=O)(=O)N1CC(CC#N)(n2cc(-c3nc(Nc4ccc(-c5nn[nH]n5)cc4)nc4ccsc34)cn2)C1
> 7.30

Reported pIC50 for N#CCCN1CC2(CCC(c3cccc4nc(NC(=O)C5CC5)nn34)CC2)C1 : what is it?
7.19
